tested on: DMS 273 small cell lung; assay: NCI tumour cell line growth inhibition, 48 h
Below is a list of entries, each paired with its recorded TGI value.

{"COMPOUND": "C=CCN=C1N=C(C)C(C(=O)OCC)S1 (centres undefined)", "TGI": "> 100 µM"}
{"COMPOUND": "CO[C@H]1C[C@@H]2CC[C@@H](C)[C@@](O)(O2)C(=O)C(=O)N2CCCC[C@H]2C(=O)O[C@H]([C@H](C)C[C@@H]2CC[C@@H](O)[C@H](OC)C2)CC(=O)[C@H](C)C=C(C)[C@@H](O)[C@@H](OC)C(=O)[C@H](C)C[C@H](C)/C=C/C=C/C=C1C", "TGI": "33.7 µM"}
{"COMPOUND": "[O-][n+]1c2cc3c(cc2[n+]([O-])c2c(O)cccc21)CN(CCN1CCOCC1)C3", "TGI": "> 100 µM"}
{"COMPOUND": "C#CCN(Cc1ccc2nc(-c3ccccc3)c(Cl)nc2c1)c1cc(OC)c(OC)c(OC)c1", "TGI": "> 100 µM"}
